These data points were gathered from patent US12448369B2.

Test system: Porcine atria myofibrils (atrial myosin ATPase)
Experiment: Myofibril ATPase assay, porcine atria myofibrils
Assay type: biochemical
Settings: porcine atria myofibrils; Y75 value (75% activity relative to no compound)
Protocol: Example 1. Myofibril ATPase Assay Myofibril ATPase assays are known in the art to be useful in evaluating small molecules for the treatment of HCM and other cardiac indications. Myosin ATPase activity is assessed by using a coupled reaction system, in which ADP generated by the myosin ATPase function is coupled to the disappearance of NADH through the pyruvate kinase/lactate dehydrogenase (PK-LDH) system. […]
Endpoint Label: Atrial EC25 (µM)

Molecule	Study System	Atrial EC25 (µM)
Cc1nccc2[nH]c(=O)c(CC(=O)N[C@H](C)c3ccc(C#N)cn3)c(C)c12 (single isomer, unassigned)	Porcine atria myofibrils (atrial myosin ATPase)	100.00
COc1ccc([C@H](C)NC(=O)Cc2c(C)c3c(C)nccc3[nH]c2=O)cn1 (single isomer, unassigned)	Porcine atria myofibrils (atrial myosin ATPase)	100.00

1. Cc1nccc2[nH]c(=O)c(CC(=O)N[C@@H](C)c3ccc(O)cc3)c(C)c12 (single isomer, unassigned)
2. Cc1c(CC(=O)N[C@@H]2COc3cc(F)cc(F)c32)c(=O)[nH]c2ccnc(C#N)c12 (single isomer, unassigned)
3. CCNc1nccc2[nH]c(=O)c(CC(=O)N[C@@H](C)c3ccc(F)cc3F)c(C)c12
4. Cc1nccc2[nH]c(=O)c(CC(=O)N[C@@H](CO)c3ncc(F)cc3F)c(C)c12 (single isomer, unassigned)
Arrange the 4 molecules by rising Atrial EC25, starting with the smallest. A complete answer lists every label in the requested sequence. 3, 4, 2, 1
(3: 0.14 µM, 4: 1.07 µM, 2: 2.50 µM, 1: 100.00 µM)

----------
tested on: Porcine atria myofibrils (atrial myosin ATPase); assay: Myofibril ATPase assay, porcine atria myofibrils; type: biochemical; conditions: Y75 value (no ‡ mark); porcine atria myofibrils
Endpoint Label: Atrial EC25 (µM)

Consider the reported Atrial EC25 for these compounds:
Compound	Atrial EC25, µM
C[C@@H](NC(=O)Cc1cc2cc(F)c(F)cc2[nH]c1=O)c1cnc(C#N)cn1	7.06
Cc1c(C(F)(F)C(=O)N[C@@H](C)c2ncc(C#N)cc2F)c(=O)[nH]c2ccc(F)c(C#N)c12 (single isomer, unassigned)	0.17
Cc1c(C(F)(F)C(=O)N[C@H](C)c2ncc(C#N)cn2)c(=O)[nH]c2ccc(F)c(C(F)(F)F)c12 (single isomer, unassigned)	0.43
Cc1c(CC(=O)N[C@@H](C)c2ccc(C#N)cc2F)c(=O)[nH]c2ccc(F)c(C#N)c12	0.06
C[C@H](NC(=O)Cc1c(C(F)(F)F)c2cc(F)ccc2[nH]c1=O)c1ccc(F)cc1F	0.05
C[C@H](NC(=O)Cc1cc2c(F)c(F)ccc2[nH]c1=O)c1cnc(C#N)cn1 (single isomer, unassigned)	0.03

P. Cc1cc(C#N)nnc1[C@H](C)NC(=O)Cc1c(C)c2cc(F)ccc2[nH]c1=O
Q. Cc1c(C2(C(=O)N[C@@H](C)c3ncc(C#N)cc3F)CC2)c(=O)[nH]c2cccc(C#N)c12 (single isomer, unassigned)
R. C[C@@H](NC(=O)C1(c2cc3cc(F)ccc3[nH]c2=O)CC1)c1cccc(C#N)n1 (single isomer, unassigned)
S. C[C@@H](NC(=O)C1(c2cc3c(F)c(F)ccc3[nH]c2=O)CC1)c1ccc(C#N)cn1 (single isomer, unassigned)
Sort these compounds on Atrial EC25 so the largest reading comes first. A complete answer lists every label in the requested sequence. R, S, Q, P

a. Cc1c(CC(=O)N[C@H](C)c2ncc(C#N)cc2F)c(=O)[nH]c2ccc(F)c(C3CC3)c12
b. C[C@@H](NC(=O)Cc1cc2c(F)c(F)ccc2[nH]c1=O)c1ccc(C#N)cn1
Returns: the argument ( a or b ) having the larger Atrial EC25. Your answer should be the label of the entry you select. a
(a: 0.23 µM, b: 0.09 µM)

P. Cc1c(CC(=O)N[C@@H](C)c2ccc(C#N)nn2)c(=O)[nH]c2cccc(C#N)c12
Q. Cc1nnccc1[C@@H](C)NC(=O)Cc1c(C)c2cc(F)ccc2[nH]c1=O
Compare Atrial EC25: is it lower for P or for Q ? Your answer should be the label of the entry you select. P

----------
system: Rabbit Psoas myofibrils (skeletal myosin ATPase); assay: Myofibril ATPase assay, rabbit psoas (skeletal) myofibrils; format: biochemical; conditions: rabbit psoas myofibrils; Y75 value
Endpoint Label: Skeletal EC25 (µM)

Compound	Skeletal EC25, µM
Cc1c(CC(=O)N[C@@H](C)c2ccc(C#N)cn2)c(=O)[nH]c2ccc(OC(F)(F)F)nc12	100.00
Cc1c(CC(=O)N[C@H](C)c2ccc(C#N)cn2)c(=O)[nH]c2ccnc(C(F)(F)F)c12	1.24
Cc1c([C@H](C)C(=O)N[C@@H](C)c2ccc(F)cc2F)c(=O)[nH]c2ccnc(F)c12 (single isomer, unassigned)	0.17
Cc1c(CC(=O)N[C@@H](C)c2ccc(F)cc2F)c(=O)[nH]c2ccnc(NCC(C)C)c12	82.10

I. Cc1nccc2[nH]c(=O)c(CC(=O)N[C@@H]3c4c(F)cc(F)cc4OC3(C)C)c(C)c12 (single isomer, unassigned)
II. Cc1nc(C#N)ncc1[C@H](C)NC(=O)Cc1c(C)c2c(C)nccc2[nH]c1=O
III. C[C@H](NC(=O)Cc1c(C(F)F)c2cnccc2[nH]c1=O)c1ccc(F)cc1F
Sort these compounds on Skeletal EC25 so the largest reading comes first. A complete answer lists every label in the requested sequence. I, II, III

----------
system: Rabbit Psoas myofibrils (skeletal myosin ATPase); test: Myofibril ATPase assay, rabbit psoas (skeletal) myofibrils; format: biochemical; conditions: rabbit psoas myofibrils; Y75 value
Endpoint Label: Skeletal EC25 (µM)

1. Cc1c(CC(=O)N[C@H](C)c2ncc(C#N)cc2F)c(=O)[nH]c2ccnc(C#N)c12 (single isomer, unassigned)
2. Cc1c(CC(=O)N[C@H](CO)c2ccc(C#N)cc2F)c(=O)[nH]c2ccc(C#N)nc12
3. Cc1cc(C#N)nnc1[C@H](C)NC(=O)Cc1c(C)c2c(C)nccc2[nH]c1=O
4. Cc1c(CC(=O)N[C@@H](CO)c2ccc(C#N)cc2F)c(=O)[nH]c2ccnc(C#N)c12 (single isomer, unassigned)
5. Cc1c(CC(=O)N[C@@H](C)c2ccc(F)cc2F)c(=O)[nH]c2ccnc(Nc3ccccc3)c12
Arrange the 5 compounds by rising Skeletal EC25, starting with the smallest. A complete answer lists every label in the requested sequence. 4, 1, 5, 3, 2
(4: 0.02 µM, 1: 0.49 µM, 5: 2.73 µM, 3: 45.80 µM, 2: 100.00 µM)

----------
test system: Porcine atria myofibrils (atrial myosin ATPase); assay: Myofibril ATPase assay, porcine atria myofibrils; assay type: biochemical; settings: porcine atria myofibrils; Y75 value (75% activity relative to no compound)
Endpoint Label: Atrial EC25 (µM)

Consider the reported Atrial EC25 for these molecules:
Molecule	Study System	Atrial EC25 (µM)
Cc1c(CC(=O)N[C@@H](CO)c2ncc(C#N)cc2F)c(=O)[nH]c2cnnc(C#N)c12	Porcine atria myofibrils (atrial myosin ATPase)	2.51
COc1ncc2[nH]c(=O)c(CC(=O)N[C@@H](C)c3ccc(F)cc3F)cc2n1	Porcine atria myofibrils (atrial myosin ATPase)	73.3
Cc1c(CC(=O)N[C@@H](C)c2ccc(F)cc2F)c(=O)[nH]c2ccc(C(F)(F)F)nc12	Porcine atria myofibrils (atrial myosin ATPase)	2.46
Cc1c(CC(=O)N[C@@H](C)c2ccc(F)cc2F)c(=O)[nH]c2ccnc(OCC(C)(C)F)c12	Porcine atria myofibrils (atrial myosin ATPase)	100.00
C[C@@H](NC(=O)Cc1c(C2CC2)c2cnccc2[nH]c1=O)c1ncc(C#N)cc1F	Porcine atria myofibrils (atrial myosin ATPase)	100.00

A. Cc1ccccc1[C@H](C)NC(=O)Cc1c(C)c2c(C)nccc2[nH]c1=O (single isomer, unassigned)
B. Cc1c(CC(=O)N[C@H](C)c2ccc(C#N)cc2F)c(=O)[nH]c2ccnc(C#N)c12 (single isomer, unassigned)
Returns: the argument ( A or B ) having the larger Atrial EC25. Your answer should be the label of the entry you select. A
(A: 3.29 µM, B: 1.55 µM)

P. C[C@@H](NC(=O)Cc1c(C(F)(F)F)c2c(C3CC3)nccc2[nH]c1=O)c1ncc(C#N)cn1 (single isomer, unassigned)
Q. Cc1cnncc1[C@H](C)NC(=O)Cc1c(C)c2c(C)nccc2[nH]c1=O
Compare Atrial EC25: is it lower for P or for Q ? Your answer should be the label of the entry you select. P

I. CC(=O)N1C[C@H](NC(=O)Cc2c(C)c3c(C)nccc3[nH]c2=O)c2c(F)cc(F)cc21
II. Cc1nccc2[nH]c(=O)c(CC(=O)N[C@H](C)c3ccc(C#N)cc3F)c(C)c12 (single isomer, unassigned)
Compare Atrial EC25: is it lower for I or for II ? Your answer should be the label of the entry you select. II
(II: 1.30 µM, I: 100.00 µM)

a. Cc1nccc2[nH]c(=O)c([C@H](C)C(=O)N[C@@H](C)c3ccc(F)cc3F)cc12 (single isomer, unassigned)
b. CCCOc1nccc2[nH]c(=O)c(CC(=O)N[C@@H](C)c3ccc(F)cc3F)c(C)c12
c. Cc1c(CC(=O)N[C@H](C)c2cnc(C#N)nc2)c(=O)[nH]c2ccc(C(F)(F)F)nc12
d. Cc1nccc2[nH]c(=O)c(CC(=O)N[C@H]3CCc4cc(F)cc(F)c43)c(C)c12 [compound 406]
Arrange the 4 molecules by rising Atrial EC25, starting with the smallest. A complete answer lists every label in the requested sequence. d, b, c, a
(d: 0.10 µM, b: 0.21 µM, c: 30.66 µM, a: 100.00 µM)

I. Cc1c(CC(=O)N[C@H](CO)c2ccc(C#N)cc2F)c(=O)[nH]c2ccnc(C(F)(F)F)c12 (single isomer, unassigned)
II. Cc1c(CC(=O)N[C@H](C)c2ccc(C#N)cc2F)c(=O)[nH]c2cnnc(C#N)c12
III. Cc1nccc2[nH]c(=O)c(C3(C(=O)N[C@@H](C)c4ncc(C#N)cc4F)CC3)c(C)c12 (single isomer, unassigned)
IV. COc1cccc([C@H](C)NC(=O)Cc2c(C)c3c(C)nccc3[nH]c2=O)c1 (single isomer, unassigned)
V. C#Cc1nccc2[nH]c(=O)c(CC(=O)N[C@@H](C)c3ccc(F)cc3F)cc12
Sort these molecules on Atrial EC25 so the largest reading comes first. A complete answer lists every label in the requested sequence. IV, II, V, I, III

A. Cc1c(CC(=O)N[C@H](C)c2ncc(F)cc2F)c(=O)[nH]c2ccnc(C#N)c12 (single isomer, unassigned)
B. CCOc1nccc2[nH]c(=O)c([C@H](C)C(=O)N[C@@H](C)c3ccc(F)cc3F)c(C(F)(F)F)c12 (single isomer, unassigned)
Compare Atrial EC25: is it lower for A or for B ? Your answer should be the label of the entry you select. B
(B: 2.22 µM, A: 17.26 µM)

I. C[C@H](NC(=O)[C@@H](C)c1cc2c(F)nccc2[nH]c1=O)c1ccc(F)cc1F (single isomer, unassigned)
II. Cc1c(CC(=O)N[C@@H](CO)c2ccc(F)cc2F)c(=O)[nH]c2ccc(C#N)nc12
III. Cc1c(CC(=O)N[C@@H](C)c2ccc(F)cc2F)c(=O)[nH]c2ccnc(OCC(F)F)c12
IV. Cc1cccc([C@H](C)NC(=O)Cc2c(C)c3c(C)nccc3[nH]c2=O)c1 (single isomer, unassigned)
Arrange the 4 molecules by rising Atrial EC25, starting with the smallest. A complete answer lists every label in the requested sequence. III, I, II, IV
(III: 0.06 µM, I: 2.23 µM, II: 7.02 µM, IV: 36.97 µM)
